- target system: Bombyx mori EcR (VP16-BmEcR, CVBE) (Bombyx mori, UniProt P49881)
- Construct: expressed in transfected cells
- Sequence (P49881 86-606): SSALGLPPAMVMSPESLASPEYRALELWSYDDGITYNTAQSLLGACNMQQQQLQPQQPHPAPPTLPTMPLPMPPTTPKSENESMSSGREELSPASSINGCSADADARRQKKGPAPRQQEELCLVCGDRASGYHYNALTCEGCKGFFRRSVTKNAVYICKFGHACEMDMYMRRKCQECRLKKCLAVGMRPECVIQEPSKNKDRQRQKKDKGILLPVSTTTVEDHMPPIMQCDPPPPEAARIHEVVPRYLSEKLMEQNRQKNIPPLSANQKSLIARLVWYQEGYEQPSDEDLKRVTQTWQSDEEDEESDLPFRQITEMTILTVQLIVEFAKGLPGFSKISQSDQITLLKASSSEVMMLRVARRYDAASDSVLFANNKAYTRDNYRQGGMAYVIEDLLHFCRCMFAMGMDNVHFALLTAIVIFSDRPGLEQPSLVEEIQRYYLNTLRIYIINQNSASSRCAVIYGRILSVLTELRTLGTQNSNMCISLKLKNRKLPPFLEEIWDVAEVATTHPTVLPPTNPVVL
- method: Z3 assay (HEK-293 clone Z3 with CVBE and 6x EcRE LacZ, β-galactosidase reporter)
- Format: cell-based
- condition label: 48 h, average of two wells
property name: Fold Induction Average, Z3V1 Assay 33 μM
In your response, the unit should come after the numeric value.

Some molecules with recorded Fold Induction Average, Z3V1 Assay 33 μM:
>  <molecule>
COc1ccc(C(=O)N2c3ccc(C)cc3[C@@H](Nc3ccc(C)cc3)C[C@@H]2C)cc1 (relative stereo) [Compound I-88]

>  <Fold Induction Average, Z3V1 Assay 33 μM>
1 fold

$$$$
>  <molecule>
Cc1ccc(NC2CC(C)N(C(=O)c3cccc([N+](=O)[O-])c3)c3ccc(C)cc32)cc1 (stereo not shown) [Compound I-154]

>  <Fold Induction Average, Z3V1 Assay 33 μM>
1 fold

$$$$
>  <molecule>
COc1ccc(C(=O)N2c3ccc(C)cc3[C@H](Nc3ccc(C)cc3)C[C@@H]2C)cc1 (stereo in doubt) [Compound I-152]

>  <Fold Induction Average, Z3V1 Assay 33 μM>
1 fold

$$$$
>  <molecule>
CC1CC(Nc2ccccc2)c2ccccc2N1C(=O)c1ccnc(Cl)c1 (stereo not shown) [Compound I-106]

>  <Fold Induction Average, Z3V1 Assay 33 μM>
83 fold

$$$$
>  <molecule>
Cc1ccc(NC2CC(C)N(C(=O)c3ccno3)c3ccc(C)cc32)cc1 (stereo not shown) [Compound I-109]

>  <Fold Induction Average, Z3V1 Assay 33 μM>
1 fold

$$$$

// for each molecule in input: emit Fold Induction Average, Z3V1 Assay 33 μM
1. CC1CC(Nc2ccccc2)c2ccccc2N1C(=O)c1ccc(Cl)c(Cl)c1 (stereo not shown) [Compound I-165]
2. C[C@H]1C[C@@H](Nc2ccc(F)cc2)c2cc(F)ccc2N1C(=O)c1ccc(F)c(F)c1 (relative stereo) [Compound I-24]

Result:
1: 1 fold; 2: 7 fold

---

- target system: DmEcR + LmUSP (Drosophila melanogaster)
- Sequence (P34021 342-878): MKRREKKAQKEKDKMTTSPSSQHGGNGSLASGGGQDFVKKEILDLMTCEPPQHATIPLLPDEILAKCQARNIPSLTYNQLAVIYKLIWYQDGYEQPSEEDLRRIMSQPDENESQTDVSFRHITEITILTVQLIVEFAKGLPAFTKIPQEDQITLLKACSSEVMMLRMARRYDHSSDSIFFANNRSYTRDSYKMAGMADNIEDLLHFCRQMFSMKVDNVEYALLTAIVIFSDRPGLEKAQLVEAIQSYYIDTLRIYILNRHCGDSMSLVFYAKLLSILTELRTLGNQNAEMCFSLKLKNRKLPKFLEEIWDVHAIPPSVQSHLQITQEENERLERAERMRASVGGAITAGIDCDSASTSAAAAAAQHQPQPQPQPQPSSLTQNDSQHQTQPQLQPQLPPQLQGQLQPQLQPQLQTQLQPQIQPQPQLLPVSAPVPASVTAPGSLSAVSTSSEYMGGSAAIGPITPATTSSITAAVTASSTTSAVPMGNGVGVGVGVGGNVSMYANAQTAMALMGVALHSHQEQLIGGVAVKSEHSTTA
- condition label: 10 μM; DmEcR + LmUSP in 3T3 cells; reporter assayed 48 h after ligand
property name: Fold Induction (10 μM)

>  <compound>
C[C@H]1C[C@@H](Nc2ccc(F)cc2)c2cc(F)ccc2N1C(=O)c1ccccc1 (relative stereo)

>  <reported>
1 fold

$$$$
>  <compound>
C[C@H]1C[C@H](Nc2ccc(F)cc2)c2cc(F)ccc2N1C(=O)c1ccc(F)c(C(F)(F)F)c1 (relative stereo)

>  <reported>
8 fold

$$$$
>  <compound>
C[C@H]1C[C@@H](Nc2ccc(F)cc2)c2cc(F)ccc2N1C(=O)c1ccc(F)cc1 (relative stereo)

>  <reported>
2 fold

$$$$
>  <compound>
C[C@H]1C[C@H](Nc2ccc(F)cc2)c2cc(F)ccc2N1C(=O)c1ccc(F)cc1 (relative stereo)

>  <reported>
9 fold

$$$$

Attention now shifts to the item below.
Ask: I'd like to know its Fold Induction (10 μM). The compound in question is C[C@H]1C[C@H](Nc2ccc(F)cc2)c2cc(F)ccc2N1C(=O)c1ccccc1 (relative stereo)
Result: 5 fold

# credit: patent US20050228016A1
